Attribution: patent US10894785B2

- EXPERIMENT_SUMMARY: Pharmacokinetics after intraperitoneal administration in female SCID mice (plasma, LC-MS/MS, non compartmental analysis)
- Assay type: in vivo
- MEASUREMENT_PARAMETERS: mouse, 20 mg/kg IP, plasma
PARAMETER_MEASURED: Cmax (ng/mL)
Enter your answer as a number in ng/mL; do not include the unit.

COMPOUND	Cmax / ng/mL
N#C/N=C(\NC/C=C/CCC1CCN(C(=O)c2ccco2)CC1)Nc1ccncc1	12100

Request: Look up Cmax of `O=C(/C=C/c1cccnc1F)NCCCCC1CCN(C(=O)c2ccccc2)CC1` and report it.
Result: 16900

Request: Look up Cmax of `O=C(/C=C/c1cccnc1F)NCCCCC1CCN(C(=O)c2cccs2)CC1` and report it.
Result: 13200

Request: Look up Cmax of O=C(/C=C/c1cccnc1)NCCCCC1CCN(C(=O)c2ccccc2)CC1 [FK866, reference compound] and report it.
Result: 28100

* * *

Each entry below carries its recorded AUC(0-t).
- EXPERIMENT_SUMMARY: Pharmacokinetics after intraperitoneal administration in female SCID mice (plasma, LC-MS/MS, non compartmental analysis)
- Format: in vivo
- MEASUREMENT_PARAMETERS: mouse, 20 mg/kg IP, plasma, read-out: AUC0-8 h
Enter your answer as a number in ng·h/mL; do not include the unit.

COMPOUND	OBSERVED_VALUE
O=C(/C=C/c1cccnc1)NCCCCC1CCN(C(=O)c2ccccc2)CC1 [FK866, reference compound]	20700
O=C(/C=C/c1cccnc1F)NCCCCC1CCN(C(=O)c2ccccc2)CC1	8400
O=C(/C=C/c1cccnc1F)NCCCCC1CCN(C(=O)c2cccs2)CC1	5110

API: the following record is the query input.
Request: Look up AUC(0-t) of `N#C/N=C(\NC/C=C/CCC1CCN(C(=O)c2ccco2)CC1)Nc1ccncc1` and report it.
Result: 5200

* * *

- System: pancreatic ductal adenocarcinoma (Panc-1)
- EXPERIMENT_SUMMARY: Anti-tumor activity on Panc-1: cell viability by sulforhodamine or MTT assay
- Format: cell-based
- MEASUREMENT_PARAMETERS: Homo sapiens, Panc-1 cells, 96 hours treatment, 0.001-1000 nM
Each entry below carries its recorded IC50.
Enter your answer as a number in nM; do not include the unit.

These solved cases illustrate the format of a correct answer.
MOLECULE	MEASURED_ON	UNITS_TEXT	IC50
COc1cccc(OC)c1C(=O)N1CCC(CCCCNC(=O)/C=C/c2cccnc2)CC1 [FEI-58]	pancreatic ductal adenocarcinoma (Panc-1)	nM	0.6
N#C/N=C(\NCCCCCC1CCN(C(=O)c2ccccc2)CC1)Nc1ccncc1 [FEI-190]	pancreatic ductal adenocarcinoma (Panc-1)	nM	2.6
COc1cccc(OC)c1C(=O)N1CCC(CCCCNC(=O)/C=C/c2cccnc2F)CC1 [MPM-08]	pancreatic ductal adenocarcinoma (Panc-1)	nM	6
N#C/N=C(\NC/C=C/CCC1CCN(C(=O)c2cccs2)CC1)Nc1ccncc1 [FEI-200]	pancreatic ductal adenocarcinoma (Panc-1)	nM	2.4
N#C/N=C(\NCCCCCC1CCN(C(=O)c2cccs2)CC1)Nc1ccncc1 [FEI-192]	pancreatic ductal adenocarcinoma (Panc-1)	nM	2.3
CCCn1cc(C=O)c(C(=O)N2CCC(CCCCNC(=O)/C=C/c3cccnc3F)CC2)c1C [MPM-14]	pancreatic ductal adenocarcinoma (Panc-1)	nM	7.54
COc1cccc(OC)c1C(=O)N1CCC(C/C=C/CNC(=O)/C=C/c2cccnc2)CC1 [FEI-81]	pancreatic ductal adenocarcinoma (Panc-1)	nM	2.3
COc1cccc(OC)c1C(=O)N1CCC(CCCCNC(=O)/C=C/c2ccc(F)nc2F)CC1 [MPM-09]	pancreatic ductal adenocarcinoma (Panc-1)	nM	2

Request: Look up IC50 of N#C/N=C(\NCCCCC1CCN(C(=O)c2ccccc2)CC1)Nc1ccncc1 [FEI-154] and report it.
Result: 3.9

Request: Look up IC50 of O=C(/C=C/c1cccnc1)NC/C=C/CC1CCN(C(=O)c2ccco2)CC1 [FEI-83] and report it.
Result: 15

Request: Look up IC50 of COc1cccc(OC)c1C(=O)N1CCC(CCCCCN/C(=N\C#N)Nc2ccncc2)CC1 [FEI-193] and report it.
Result: 4.8

Request: Look up IC50 of O=C(/C=C/c1ccc(F)nc1F)NCCCCC1CCN(C(=O)c2cccs2)CC1 [PER-202] and report it.
Result: 5

Request: Look up IC50 of COc1cccc(OC)c1C(=O)N1CCC(CCCCNC(=O)Nc2ccncc2)CC1 [FEI-209] and report it.
Result: 8.2

Request: Look up IC50 of N#C/N=C(\NCCCCC1CCN(C(=O)c2ccco2)CC1)Nc1ccc(F)nc1 [FEI-170] and report it.
Result: 18
